# combination Emax values compiled below
- Tested on: NCI-H650 (Lung Adenocarcinoma)
- protocolDetails: combination Emax (second highest fraction inhibited in the dose matrix, 72 h); higher = more inhibition; extreme values may be limits of the assay
Number only, no unit.

Worked examples, 3 molecules total:
CC1(C)CCC(CN2CCN(c3ccc(C(=O)NS(=O)(=O)c4ccc(NCC5CCOCC5)c([N+](=O)[O-])c4)c(Oc4cnc5[nH]ccc5c4)c3)CC2)=C(c2ccc(Cl)cc2)C1 [Venetoclax] + C[C@@H]1COCCN1C2=NC(=NC(=C2)C3(CC3)[S@](=N)(=O)C)C4=C5C=CNC5=NC=C4 [AZD6738] (first compound max 1 µM, 7x7, partner max 10 µM)
0.276
Cc1c2c(nn1C)CSCc1cc(n(C)n1)CSc1cc(c3ccccc3c1)OCCCc1c(C(=O)O)n(C)c3c-2c(Cl)ccc13 [AZD5991] + CCN(CCO)CCCOc1ccc2c(Nc3cc(CC(=O)Nc4cccc(F)c4)[nH]n3)ncnc2c1 [AZD2811] (first compound max 1 µM, 7x7, partner max 1 µM)
0.61
Cc1cc2ncnn2cc1Nc1ncc2c(n1)n(C1CCOCC1)c(=O)n2C [AZD7648] + C=CCn1c(=O)c2cnc(Nc3ccc(N4CCN(C)CC4)cc3)nc2n1-c1cccc(C(C)(C)O)n1 [AZD1775] (first compound max 10 µM, partner max 1 µM)
0.288

combination Emax for Cn1cnc2c(F)c(Nc3ccc(Br)cc3Cl)c(C(=O)NOCCO)cc21 [Selumetinib] + CCN(CCO)CCCOc1ccc2c(Nc3cc(CC(=O)Nc4cccc(F)c4)[nH]n3)ncnc2c1 [AZD2811] (first compound max 10 µM, 7x7, partner max 1 µM) ?
0.387

// next record COc1cccc2c1C(=O)c1c(O)c3c(c(O)c1C2=O)C[C@@](O)(C(=O)CO)C[C@@H]3O[C@H]1C[C@H](N)[C@H](O)[C@H](C)O1 [Doxorubicin] + Cc1cc2ncnn2cc1Nc1ncc2c(n1)n(C1CCOCC1)c(=O)n2C [AZD7648] (first compound max 1 µM, 7x7, partner max 10 µM)
0.334

// next record COc1nnc2ccc(N3CCC(c4ccc(OCCN5CCN(C)C(=O)[C@H]5C)cc4)CC3)nn12 [AZD5153] + C[C@@H]1COCCN1C2=NC(=NC(=C2)C3(CC3)[S@](=N)(=O)C)C4=C5C=CNC5=NC=C4 [AZD6738] (first compound max 1 µM, 7x7, partner max 10 µM)
0.51

// next record Cc1nc(Nc2ncc(C(=O)Nc3c(C)cccc3Cl)s2)cc(N2CCN(CCO)CC2)n1 [Dasatinib] + CC(=O)Nc1cccc(-n2c(=O)n(C3CC3)c(=O)c3c(Nc4ccc(I)cc4F)n(C)c(=O)c(C)c32)c1 [Trametinib] (first compound max 2 µM, 7x7, partner max 1 µM)
0.747

* * *

- Test system: ME-180 (Cervical Carcinoma)
- protocolDetails: combination Emax (second highest fraction inhibited in the dose matrix, 72 h); higher = more inhibition; extreme values may be limits of the assay
propertyName: combination Emax
Number only, no unit.

Worked examples, 3 compounds total:
COc1nnc2ccc(N3CCC(c4ccc(OCCN5CCN(C)C(=O)[C@H]5C)cc4)CC3)nn12 [AZD5153] + C=CCn1c(=O)c2cnc(Nc3ccc(N4CCN(C)CC4)cc3)nc2n1-c1cccc(C(C)(C)O)n1 [AZD1775] (first compound max 1 µM, partner max 1 µM)
0.68
CCN(CCO)CCCOc1ccc2c(Nc3cc(CC(=O)Nc4cccc(F)c4)[nH]n3)ncnc2c1 [AZD2811] + C[C@@H]1COCCN1C2=NC(=NC(=C2)C3(CC3)[S@](=N)(=O)C)C4=C5C=CNC5=NC=C4 [AZD6738] (first compound max 1 µM, 7x7, partner max 10 µM)
0.43
CC(=O)c1c(C)c2cnc(Nc3ccc(N4CCNCC4)cn3)nc2n(C2CCCC2)c1=O [Palbociclib] + Cc1c2c(nn1C)CSCc1cc(n(C)n1)CSc1cc(c3ccccc3c1)OCCCc1c(C(=O)O)n(C)c3c-2c(Cl)ccc13 [AZD5991] (first compound max 10 µM, 7x7, partner max 1 µM)
0.151

Moving on to another compound below.
combination Emax for NC1(C(=O)N[C@@H](CCO)c2ccc(Cl)cc2)CCN(c2ncnc3[nH]ccc23)CC1 [Capivasertib] + CC(C)n1c(=O)n(C)c2cnc3cc(F)c(-c4ccc(OCCCN5CCCCC5)nc4)cc3c21 [AZD1390] (first compound max 10 µM, 7x7, partner max 0.3 µM) ?
0.636

* * *

- System: CADO-ES1 (Ewing's Sarcoma)
- protocolDetails: Bliss excess, mean over the matrix (fraction); higher = more synergy
# Bliss excess values compiled below

CN(CCO)CC[C@H](CSc1ccccc1)Nc1ccc(S(=O)(=O)NC(=O)c2ccc(N3CCC([C@@H](O)c4ccccc4-c4ccc(Cl)cc4)CC3)cc2)cc1S(=O)(=O)C(F)(F)F [AZD4320] + Cn1cnc2c(F)c(Nc3ccc(Br)cc3Cl)c(C(=O)NOCCO)cc21 [Selumetinib] (first compound max 1 µM, 7x7, partner max 3 µM)
-0.0085

Bliss excess for Cc1cc2ncnn2cc1Nc1ncc2c(n1)n(C1CCOCC1)c(=O)n2C [AZD7648] + C=CCn1c(=O)c2cnc(Nc3ccc(N4CCN(C)CC4)cc3)nc2n1-c1cccc(C(C)(C)O)n1 [AZD1775] (first compound max 10 µM, partner max 1 µM) ?
0.0512

// next record COc1cccc2c1C(=O)c1c(O)c3c(c(O)c1C2=O)C[C@@](O)(C(=O)CO)C[C@@H]3O[C@H]1C[C@H](N)[C@H](O)[C@H](C)O1 [Doxorubicin] + Cc1cc2ncnn2cc1Nc1ncc2c(n1)n(C1CCOCC1)c(=O)n2C [AZD7648] (first compound max 1 µM, 7x7, partner max 10 µM)
0.111

* * *

# Bliss excess values compiled below
- System: KMRC-1 (Kidney Carcinoma)
- protocolDetails: Bliss excess, mean over the matrix (fraction); higher = more synergy
Number only, no unit.

Cc1nc(-c2cn3c(n2)-c2ccc(-c4cnn(C(C)(C)C(N)=O)c4)cc2OCC3)n(C(C)C)n1 [Taselisib] + O=C(Nc1ccc2[nH]nc(-c3ccncc3)c2c1)[C@@H]1CCN(CC(=O)N2CCN(c3ccc(-c4ncccn4)cc3)CC2)C1 [SCH772984] (first compound max 10 µM, 7x7, partner max 5 µM)
-0.0377
COc1nnc2ccc(N3CCC(c4ccc(OCCN5CCN(C)C(=O)[C@H]5C)cc4)CC3)nn12 [AZD5153] + CC1(C)CCC(CN2CCN(c3ccc(C(=O)NS(=O)(=O)c4ccc(NCC5CCOCC5)c([N+](=O)[O-])c4)c(Oc4cnc5[nH]ccc5c4)c3)CC2)=C(c2ccc(Cl)cc2)C1 [Venetoclax] (first compound max 1 µM, 7x7, partner max 1 µM)
-0.063

Bliss excess for CCc1c2c(nc3ccc(O)cc13)-c1cc3c(c(=O)n1C2)COC(=O)[C@]3(O)CC [SN-38] + O=C(c1cc(Cc2n[nH]c(=O)c3ccccc23)ccc1F)N1CCN(C(=O)C2CC2)CC1 [Olaparib] (first compound max 0.3 µM, 7x7, partner max 10 µM) ?
0.0508

* * *

# combination Emax values compiled below
- Test system: KMRC-1 (Kidney Carcinoma)
- protocolDetails: combination Emax (second highest fraction inhibited in the dose matrix, 72 h); higher = more inhibition; extreme values may be limits of the assay

CS(=O)(=O)CCNCc1ccc(-c2ccc3ncnc(Nc4ccc(OCc5cccc(F)c5)c(Cl)c4)c3c2)o1 [Lapatinib] + NC1(c2ccc(-c3nc4ccn5c(=O)[nH]nc5c4cc3-c3ccccc3)cc2)CCC1 [MK-2206] (first compound max 10 µM, 7x7, partner max 10 µM)
0.792

Moving on to another compound below.
# value lookup — system KMRC-1 (Kidney Carcinoma), readout combination Emax, item NC1(C(=O)N[C@@H](CCO)c2ccc(Cl)cc2)CCN(c2ncnc3[nH]ccc23)CC1 [Capivasertib] + CCN(CCO)CCCOc1ccc2c(Nc3cc(CC(=O)Nc4cccc(F)c4)[nH]n3)ncnc2c1 [AZD2811] (first compound max 10 µM, 7x7, partner max 1 µM)
0.494

* * *

- System: NCI-H522 (Lung Adenocarcinoma)
- protocolDetails: Bliss excess, mean over the matrix (fraction); higher = more synergy
# Bliss excess values compiled below
Number only, no unit.

CN(CCO)CC[C@H](CSc1ccccc1)Nc1ccc(S(=O)(=O)NC(=O)c2ccc(N3CCC([C@@H](O)c4ccccc4-c4ccc(Cl)cc4)CC3)cc2)cc1S(=O)(=O)C(F)(F)F [AZD4320] + CC(=O)O[C@H]1C(=O)[C@@]2(C)[C@H]([C@H](OC(=O)c3ccccc3)[C@]3(O)C[C@H](OC(=O)[C@H](O)[C@@H](NC(=O)c4ccccc4)c4ccccc4)C(C)=C1C3(C)C)[C@]1(OC(C)=O)CO[C@@H]1C[C@@H]2O [Paclitaxel] (first compound max 1 µM, 7x7, partner max 3 µM)
0.0246
NC1(C(=O)N[C@@H](CCO)c2ccc(Cl)cc2)CCN(c2ncnc3[nH]ccc23)CC1 [Capivasertib] + CC(=O)c1c(C)c2cnc(Nc3ccc(N4CCNCC4)cn3)nc2n(C2CCCC2)c1=O [Palbociclib] (first compound max 10 µM, 7x7, partner max 10 µM)
-0.0696
CN(CCO)CC[C@H](CSc1ccccc1)Nc1ccc(S(=O)(=O)NC(=O)c2ccc(N3CCC([C@@H](O)c4ccccc4-c4ccc(Cl)cc4)CC3)cc2)cc1S(=O)(=O)C(F)(F)F [AZD4320] + C[C@@H](Nc1cc(F)cc(F)c1)c1cc(C(=O)N(C)C)cc2c(=O)cc(N3CCOCC3)oc12 [AZD8186] (first compound max 1 µM, 7x7, partner max 3 µM)
-0.0481

Moving on to another compound below.
Bliss excess for NC1(C(=O)N[C@@H](CCO)c2ccc(Cl)cc2)CCN(c2ncnc3[nH]ccc23)CC1 [Capivasertib] + COc1nnc2ccc(N3CCC(c4ccc(OCCN5CCN(C)C(=O)[C@H]5C)cc4)CC3)nn12 [AZD5153] (first compound max 10 µM, 7x7, partner max 1 µM) ?
-0.0698
